Values were extracted from the Human Domainome abundance scans (Beltran et al. 2025).

B1: Peroxisome proliferator-activated receptor delta, residues 71 to 145; numbered along this chain, Q03181 (parent)
chain: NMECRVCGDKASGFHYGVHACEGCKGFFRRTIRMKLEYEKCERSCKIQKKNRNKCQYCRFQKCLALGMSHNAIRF

variants of: B1; test: abundance fitness (aPCA) (normalised: wild type 0, dead -1); higher = more abundant; growth selection in yeast, the domain comes from the species named; conditions: Homo sapiens
Readout kind: abundance fitness

[
  {
    "Sequence content": "PMECRVCGDKASGFHYGVHACEGCKGFFRRTIRMKLEYEKCERSCKIQKKNRNKCQYCRFQKCLALGMSHNAIRF",
    "Experimental result": -0.475
  },
  {
    "Sequence content": "NMECRVCGDKASGFHYGVHACEGCKGFFRRCIRMKLEYEKCERSCKIQKKNRNKCQYCRFQKCLALGMSHNAIRF",
    "Experimental result": -0.726
  },
  {
    "Sequence content": "NMECTVCGDKASGFHYGVHACEGCKGFFRRTIRMKLEYEKCERSCKIQKKNRNKCQYCRFQKCLALGMSHNAIRF",
    "Experimental result": -0.018
  },
  {
    "Sequence content": "NMECRVCGDKASGFHYGVHACEGCKGFFRRTIRMKLEYEKCERSCKIQKTNRNKCQYCRFQKCLALGMSHNAIRF",
    "Experimental result": -0.018
  },
  {
    "Sequence content": "NMECRVCGDKASGFHYGVHACEGCKGFFRRTIRMKLEYNKCERSCKIQKKNRNKCQYCRFQKCLALGMSHNAIRF",
    "Experimental result": -0.222
  },
  {
    "Sequence content": "NMECRVCGDKASGFHYGVHACEGCKGFFERTIRMKLEYEKCERSCKIQKKNRNKCQYCRFQKCLALGMSHNAIRF",
    "Experimental result": 0.258
  },
  {
    "Sequence content": "NMECRVCGDKASGFHYGVHFCEGCKGFFRRTIRMKLEYEKCERSCKIQKKNRNKCQYCRFQKCLALGMSHNAIRF",
    "Experimental result": 0.145
  },
  {
    "Sequence content": "NMECRVCGDKASGFHYGVYACEGCKGFFRRTIRMKLEYEKCERSCKIQKKNRNKCQYCRFQKCLALGMSHNAIRF",
    "Experimental result": 0.038
  },
  {
    "Sequence content": "NMECRVCGDKASGFHYGVHACEGCKGFFPRTIRMKLEYEKCERSCKIQKKNRNKCQYCRFQKCLALGMSHNAIRF",
    "Experimental result": -0.901
  },
  {
    "Sequence content": "NMECRVCGDKASGFHYGVHACEGCKGFFRRTIRMKLEYEKCERSCKIQKKNRNKCQYLRFQKCLALGMSHNAIRF",
    "Experimental result": -0.769
  }
]
